# test system: Protein cereblon (Homo sapiens, UniProt Q96SW2)
experimental endpoint: pIC50
Note on pIC50: it is the negative log10 of concentration, concentration in mol/L.

compound="CC(=O)c1cc(C(=O)Nc2cc(CO)cc(-c3cnn(C)c3)c2F)c2cc(OCCCC(=O)NCCNc3cccc4c3C(=O)N(C3CCC(=O)NC3=O)C4=O)ccn12 (stereo not given)" test_system="Protein cereblon (Homo sapiens, UniProt Q96SW2)" endpoint_value=5.96
compound="CC(=O)c1cc(C(=O)Nc2cc(CO)cc(-c3cnn(C)c3)c2F)c2cc(OCCCCC(=O)NCCCc3cccc4c3C(=O)N(C3CCC(=O)NC3=O)C4=O)ccn12 (stereo not given)" test_system="Protein cereblon (Homo sapiens, UniProt Q96SW2)" endpoint_value=6.33

Prompt: Indicate its recorded pIC50; the compound in question is CC(=O)c1cc(C(=O)Nc2cc(CO)cc(-c3cnn(C)c3)c2F)c2cc(OCCCCCC(=O)NCCCc3cccc4c3C(=O)N(C3CCC(=O)NC3=O)C4=O)ccn12 (stereo not given)
Response: 6.10

----------
# Test system: KG-1
# experiment description: Antiproliferative activity against human KG-1 cells assessed as inhibition of cell growth incubated for 72 hrs by celltiter glo luminescence analysis
# Assay type: functional, cell-based
# experimental setup: KG-1, 72 h
Recorded measurements of pIC50, one per entry
Note on pIC50: it is the negative log10 of concentration, concentration in mol/L.

Prompt: Indicate its recorded pIC50; the compound in question is CC(=O)c1cc(C(=O)Nc2cc(CO)cc(-c3cnn(C)c3)c2F)c2cc(OCCCCCC(=O)NCCCc3cccc4c3C(=O)N(C3CCC(=O)NC3=O)C4=O)ccn12 (stereo not given)
Response: 5.32

Prompt: Indicate its recorded pIC50; the compound in question is CC(=O)c1cc(C(=O)Nc2cc(CO)cc(-c3cnn(C)c3)c2F)c2cc(OCC(=O)NCCCCNc3cccc4c3C(=O)N(C3CCC(=O)NC3=O)C4=O)ccn12 (stereo not given)
Response: 6.24

Prompt: Indicate its recorded pIC50; the compound in question is CC(=O)c1cc(C(=O)Nc2cc(CO)cc(-c3cnn(C)c3)c2F)c2cc(OCCCC(=O)NCCNc3cccc4c3C(=O)N(C3CCC(=O)NC3=O)C4=O)ccn12 (stereo not given)
Response: 5.40

Prompt: Indicate its recorded pIC50; the compound in question is CC(=O)c1cc(C(=O)Nc2cc(CO)cc(-c3cnn(C)c3)c2F)c2cc(O)ccn12
Response: 4.94

Prompt: Indicate its recorded pIC50; the compound in question is CO[C@H]1CC[C@H](n2c([C@@H]3CCCC(=O)N3c3ccc(F)c(F)c3)nc3cc(-c4c(C)noc4C)ccc32)CC1
Response: 4.77

----------
# experiment description: Antiproliferative activity against human MOLM16 cells assessed as inhibition of cell growth incubated for 72 hrs by celltiter glo luminescence analysis
# Assay type: functional, cell-based, MOLM-16
# experimental setup: MOLM16, 72 h
Recorded measurements of pIC50, one per entry
Note on pIC50: it is the negative log10 of concentration, concentration in mol/L.

compound="CC(=O)c1cc(C(=O)Nc2cc(CO)cc(-c3cnn(C)c3)c2F)c2cc(OCCCC(=O)NCCNc3cccc4c3C(=O)N(C3CCC(=O)NC3=O)C4=O)ccn12 (stereo not given)" endpoint_value=7.68
compound=CC(=O)c1cc(C(=O)Nc2cc(CO)cc(-c3cnn(C)c3)c2F)c2cc(O)ccn12 endpoint_value=4.87
compound=CO[C@H]1CC[C@H](n2c([C@@H]3CCCC(=O)N3c3ccc(F)c(F)c3)nc3cc(-c4c(C)noc4C)ccc32)CC1 endpoint_value=6.43
compound="CC(=O)c1cc(C(=O)Nc2cc(CO)cc(-c3cnn(C)c3)c2F)c2cc(OCC(=O)NCCCCNc3cccc4c3C(=O)N(C3CCC(=O)NC3=O)C4=O)ccn12 (stereo not given)" endpoint_value=8.15

Now consider the entry below.
Prompt: Indicate its recorded pIC50; the compound in question is CC(=O)c1cc(C(=O)Nc2cc(CO)cc(-c3cnn(C)c3)c2F)c2cc(OCCCCCC(=O)NCCCc3cccc4c3C(=O)N(C3CCC(=O)NC3=O)C4=O)ccn12 (stereo not given)
Response: 7.27

----------
Recorded measurements of pIC50, one per entry
# test system: CREB-binding protein (Homo sapiens)
# experiment description: Inhibition of C-terminal biotinylated tetra-acetylated histone peptide H4 binding to His6-fused human CBP bromodomain (R1081 to G1197 residues) incubated for 1 hrs by HTRF assay
Note on pIC50: it is the negative log10 of concentration, concentration in mol/L.

Some solved entries appear below for comparison.
molecule=CC(=O)c1cc(C(=O)Nc2cc(CO)cc(-c3cnn(C)c3)c2F)c2cc(O)ccn12 test_system="CREB-binding protein (Homo sapiens)" endpoint_value=8.22
molecule="CC(=O)c1cc(C(=O)Nc2cc(CO)cc(-c3cnn(C)c3)c2F)c2cc(OCCCC(=O)NCCNc3cccc4c3C(=O)N(C3CCC(=O)NC3=O)C4=O)ccn12 (stereo unspecified)" test_system="CREB-binding protein (Homo sapiens)" endpoint_value=7.14
molecule="CC(=O)c1cc(C(=O)Nc2cc(CO)cc(-c3cnn(C)c3)c2F)c2cc(OCCCCCCC(=O)NCCCc3cccc4c3C(=O)N(C3CCC(=O)NC3=O)C4=O)ccn12 (stereo unspecified)" test_system="CREB-binding protein (Homo sapiens)" endpoint_value=7.44
molecule="CC(=O)c1cc(C(=O)Nc2cc(CO)cc(-c3cnn(C)c3)c2F)c2cc(OCCCCCC(=O)NCCCc3cccc4c3C(=O)N(C3CCC(=O)NC3=O)C4=O)ccn12 (stereo unspecified)" test_system="CREB-binding protein (Homo sapiens)" endpoint_value=7.17
molecule="CC(=O)c1cc(C(=O)Nc2cc(CO)cc(-c3cnn(C)c3)c2F)c2cc(OCC(=O)NCCCCNc3cccc4c3C(=O)N(C3CCC(=O)NC3=O)C4=O)ccn12 (stereo unspecified)" test_system="CREB-binding protein (Homo sapiens)" endpoint_value=7.68

Prompt: Identify measured pIC50 obtained with CREB-binding protein (Homo sapiens) for CC(=O)c1cc(C(=O)Nc2cc(CO)cc(-c3cnn(C)c3)c2F)c2cc(OCCCCC(=O)NCCCc3cccc4c3C(=O)N(C3CCC(=O)NC3=O)C4=O)ccn12 (stereo unspecified) .
Response: 7.70

----------
# test system: Histone acetyltransferase p300 (Homo sapiens)
# experiment description: Inhibition of p300 (unknown origin) using histone H3 (1 to 21 residues) as substrate preincubated for 15 mins followed by substrate and [3H]Ac-CoA addition and measured after 60 mins by liquid scintillation counting analysis
experimental endpoint: IC50 (nM)
Hi! Could you send only the number? It should be in nM, unit omitted.

Prompt: Indicate its recorded IC50; the compound in question is CNC(=O)Nc1ccc2c(c1)CC[C@@]21OC(=O)N(CC(=O)N2Cc3cc(F)ccc3OC[C@H]2C2CC2)C1=O
Response: 0.5

----------
# Test system: MV4-11
# experiment description: Antiproliferative activity against human MV4-11 cells assessed as inhibition of cell growth incubated for 120 hrs by celltiter glo luminescence analysis
# Assay type: functional, cell-based
# experimental setup: MV4-11, 120 h
Recorded measurements of pIC50, one per entry
Note on pIC50: it is the negative log10 of concentration, concentration in mol/L.

Some solved entries appear below for comparison.
compound="CC(=O)c1cc(C(=O)Nc2cc(CO)cc(-c3cnn(C)c3)c2F)c2cc(OC3CCN(C(=O)CCOCCOCCOCCOCCNc4cccc5c4C(=O)N(C4CCC(=O)NC4=O)C5=O)CC3)ccn12 (stereo unspecified)" test_system=MV4-11 endpoint_value=5.31
compound="CC(=O)c1cc(C(=O)Nc2cc(CO)cc(-c3cnn(C)c3)c2F)c2cc(OCC(=O)NCC#Cc3cccc4c3C(=O)N(C3CCC(=O)NC3=O)C4=O)ccn12 (stereo unspecified)" test_system=MV4-11 endpoint_value=4.64

Prompt: Identify measured pIC50 obtained with MV4-11 for CC(=O)c1cc(C(=O)Nc2cc(CO)cc(-c3cnn(C)c3)c2F)c2cc(OCCCCCC(=O)NCCCc3cccc4c3C(=O)N(C3CCC(=O)NC3=O)C4=O)ccn12 (stereo unspecified) .
Response: 6.34

Prompt: Identify measured pIC50 obtained with MV4-11 for CO[C@H]1CC[C@H](n2c([C@@H]3CCCC(=O)N3c3ccc(F)c(F)c3)nc3cc(-c4c(C)noc4C)ccc32)CC1 .
Response: 7.85

----------
# experiment description: Cytotoxicity against human HL7702 cells assessed as inhibition of cell growth incubated for 72 hrs by celltiter glo luminescence analysis
# Type: toxicity, cell-based
# experimental setup: HL7702 (L02) cells
Recorded measurements of IC50 at 72 h, one per entry
Hi! Could you send only the number? It should be in µM, unit omitted.

entry_smiles=CC(=O)c1cc(C(=O)Nc2cc(CO)cc(-c3cnn(C)c3)c2F)c2cc(O)ccn12 endpoint_value=38.3

Prompt: Indicate its recorded IC50 at 72 h; the compound in question is CO[C@H]1CC[C@H](n2c([C@@H]3CCCC(=O)N3c3ccc(F)c(F)c3)nc3cc(-c4c(C)noc4C)ccc32)CC1
Response: 20
